target: Fuc(a1-3)[Gal(b1-4)]GlcNAc(b1-3)Gal(b1-4)[Fuc(a1-3)]GlcNAc(b1-3)Gal(b1-4)[Fuc(a1-3)]GlcNAc; experiment: glycan array binding signal (z-score within array); higher = stronger binding; conditions: glycan notation: IUPAC condensed, linker removed
The full list was thinned out, with the strongest signals kept by preference.
REPORTED_METRIC: glycan array binding signal (z-score)
// response body must contain only the number

Data request: Answer with reported glycan array binding signal (z-score) of MGL1 (Mus musculus), P49300 (protein) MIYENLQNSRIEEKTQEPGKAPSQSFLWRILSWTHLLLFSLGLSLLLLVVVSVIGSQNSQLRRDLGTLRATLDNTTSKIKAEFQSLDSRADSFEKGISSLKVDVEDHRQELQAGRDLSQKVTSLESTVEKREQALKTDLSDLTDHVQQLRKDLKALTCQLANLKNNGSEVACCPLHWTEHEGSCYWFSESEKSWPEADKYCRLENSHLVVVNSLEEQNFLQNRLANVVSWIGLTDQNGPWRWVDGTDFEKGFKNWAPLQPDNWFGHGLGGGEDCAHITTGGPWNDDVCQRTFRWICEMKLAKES
Data returned: 5.1

Data request: For OS9 (Arabidopsis thaliana) (protein) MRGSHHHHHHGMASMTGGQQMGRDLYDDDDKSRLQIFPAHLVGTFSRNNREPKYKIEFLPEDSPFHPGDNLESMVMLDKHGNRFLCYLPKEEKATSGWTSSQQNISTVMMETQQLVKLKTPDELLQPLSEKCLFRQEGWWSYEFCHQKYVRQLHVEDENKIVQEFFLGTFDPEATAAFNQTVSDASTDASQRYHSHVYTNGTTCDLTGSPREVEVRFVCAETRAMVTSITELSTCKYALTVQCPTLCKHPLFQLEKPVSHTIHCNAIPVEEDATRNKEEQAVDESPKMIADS , write its glycan array binding signal (z-score).
Data returned: -0.881

Data request: Give the reported value of glycan array binding signal (z-score) for this record: MUB70 (Lactobacillus reuteri) (protein) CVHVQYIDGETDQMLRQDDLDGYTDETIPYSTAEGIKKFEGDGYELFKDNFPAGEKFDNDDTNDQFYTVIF
Data returned: -0.805

Data request: Give the reported value of glycan array binding signal (z-score) for this record: DC-Sign-R (Homo sapiens), Q9H2X3 (protein) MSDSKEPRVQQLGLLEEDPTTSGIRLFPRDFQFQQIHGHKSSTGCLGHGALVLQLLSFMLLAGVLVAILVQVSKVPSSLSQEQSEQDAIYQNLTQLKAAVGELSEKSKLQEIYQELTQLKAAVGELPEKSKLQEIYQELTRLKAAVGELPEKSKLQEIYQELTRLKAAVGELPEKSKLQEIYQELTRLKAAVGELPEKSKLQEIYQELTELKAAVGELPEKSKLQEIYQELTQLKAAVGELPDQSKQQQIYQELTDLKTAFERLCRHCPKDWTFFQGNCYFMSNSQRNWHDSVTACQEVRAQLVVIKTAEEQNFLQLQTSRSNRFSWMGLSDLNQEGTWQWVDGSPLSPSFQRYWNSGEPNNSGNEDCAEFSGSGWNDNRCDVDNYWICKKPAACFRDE
Data returned: -0.384

Data request: Supply glycan array binding signal (z-score) value. Item: EEA (Euonymus europaeus) (protein) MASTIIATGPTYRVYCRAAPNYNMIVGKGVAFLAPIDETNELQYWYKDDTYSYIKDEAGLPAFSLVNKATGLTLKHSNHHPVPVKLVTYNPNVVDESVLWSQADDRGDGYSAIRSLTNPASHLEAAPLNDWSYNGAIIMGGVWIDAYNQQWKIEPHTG
Data returned: -0.252

Data request: Return value of glycan array binding signal (z-score) for input SP16665A-bot-344-23-344 (Bacteroides ovatus) (protein) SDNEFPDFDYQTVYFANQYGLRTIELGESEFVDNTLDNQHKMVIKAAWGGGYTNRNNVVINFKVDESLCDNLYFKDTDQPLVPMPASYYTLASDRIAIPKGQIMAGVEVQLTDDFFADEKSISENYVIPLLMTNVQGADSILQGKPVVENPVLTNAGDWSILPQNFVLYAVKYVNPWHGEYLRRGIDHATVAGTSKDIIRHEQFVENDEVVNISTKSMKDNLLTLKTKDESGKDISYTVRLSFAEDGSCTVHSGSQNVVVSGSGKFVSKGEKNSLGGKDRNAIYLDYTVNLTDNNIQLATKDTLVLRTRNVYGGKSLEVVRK , no commentary.
Data returned: 0
